target: EGFR (Homo sapiens, UniProt P00533); construct: host or cells: A431; test: EGFR in-cell Western (ICW) screening protocol (EGFR inhibition assay); type: cell-based; parameters: unit not given here; conditions: ICW assay, run 1
Sequence (P00533 25-1210): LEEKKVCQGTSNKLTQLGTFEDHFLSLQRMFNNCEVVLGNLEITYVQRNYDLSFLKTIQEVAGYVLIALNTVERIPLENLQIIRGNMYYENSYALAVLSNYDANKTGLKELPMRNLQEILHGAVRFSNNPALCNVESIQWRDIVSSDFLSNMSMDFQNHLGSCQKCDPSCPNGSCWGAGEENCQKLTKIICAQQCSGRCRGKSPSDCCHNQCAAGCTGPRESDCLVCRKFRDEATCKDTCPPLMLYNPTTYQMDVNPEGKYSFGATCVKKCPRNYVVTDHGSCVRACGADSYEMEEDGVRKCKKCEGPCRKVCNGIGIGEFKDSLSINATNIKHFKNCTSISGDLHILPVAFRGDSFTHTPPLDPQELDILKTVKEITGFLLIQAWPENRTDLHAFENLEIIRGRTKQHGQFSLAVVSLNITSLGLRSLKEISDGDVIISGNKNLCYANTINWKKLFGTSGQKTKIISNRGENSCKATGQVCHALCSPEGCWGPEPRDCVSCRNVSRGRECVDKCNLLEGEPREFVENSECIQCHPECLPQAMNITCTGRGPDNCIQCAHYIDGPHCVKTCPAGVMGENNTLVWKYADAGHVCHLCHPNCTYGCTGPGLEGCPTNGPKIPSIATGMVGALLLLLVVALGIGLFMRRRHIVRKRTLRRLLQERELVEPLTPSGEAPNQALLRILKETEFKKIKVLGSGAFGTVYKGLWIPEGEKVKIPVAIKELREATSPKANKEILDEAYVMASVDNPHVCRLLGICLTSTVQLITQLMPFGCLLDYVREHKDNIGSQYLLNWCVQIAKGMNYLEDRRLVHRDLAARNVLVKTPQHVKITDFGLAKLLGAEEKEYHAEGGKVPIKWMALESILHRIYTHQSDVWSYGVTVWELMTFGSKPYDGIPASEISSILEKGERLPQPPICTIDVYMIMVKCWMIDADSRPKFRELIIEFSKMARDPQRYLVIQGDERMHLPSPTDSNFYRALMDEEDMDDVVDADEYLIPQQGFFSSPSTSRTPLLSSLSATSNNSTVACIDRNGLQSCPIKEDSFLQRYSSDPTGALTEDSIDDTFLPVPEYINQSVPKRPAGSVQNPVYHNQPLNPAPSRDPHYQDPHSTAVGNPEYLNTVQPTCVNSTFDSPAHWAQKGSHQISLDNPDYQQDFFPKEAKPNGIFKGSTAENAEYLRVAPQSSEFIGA
Counter-ions that a name gives are not always drawn.
measured_endpoint: ICW 1
Reply: number alone, nothing else.

[[record]]
compound = "Cc1nc(Nc2nc(CSc3ccccn3)cc(=O)[nH]2)nc2ccccc12 [12623 + TFA]"
system_under_test = "EGFR (Homo sapiens, UniProt P00533)"
result_number = 21.11

[[record]]
compound = "COc1cccc(-c2cc(=O)[nH]c(Nc3nc(C)c4cccc(C)c4n3)n2)c1"
system_under_test = "EGFR (Homo sapiens, UniProt P00533)"
result_number = 32.19

[[record]]
compound = "CCCCCc1c(C)nc(Nc2nc(C)c3cc(CC)ccc3n2)[nH]c1=O [12226 + TFA]"
system_under_test = "EGFR (Homo sapiens, UniProt P00533)"
result_number = 42.24


Query: Would you kindly share the measured ICW 1 for CCCc1c(C)nc(Nc2nc(C)c3cc(C)cc(C)c3n2)[nH]c1=O [compound 12736] ?
Reply: 32.35

Query: Cc1cc2nc(Nc3nc(=O)c(C)c(C)[nH]3)nc(C)c2cc1C [12630 + TFA] ?
Reply: 17.06

Query: // repeat for Cc1cc(-c2ccccc2)nc(Nc2nc(C)c3cc(C)c(C)cc3n2)n1 and report
Reply: 33.31

Query: Proceed to CCCCc1c(C)nc(Nc2nc(C)c3cc(C)ccc3n2)[nH]c1=O
Reply: 42.15
